Numbers sourced from PubChem BioAssay (NCI).

tested on: HL-60(TB) leukemia; test: NCI-60 one-dose screen, 48 h; conditions: 10 µM unless noted
This is part of a sample that, as a whole, favours compounds with a hit. Of some 83,000 tested, about 20% had one in any assay. Calls of active or inactive are those of the source. How the source made its calls: active means growth percent below 10; inactive means the rest.
Parameter call: string, one of active, inactive

// known answers, use as guide
compound	group
CCNc1cc(S(=O)(=O)O)ccc1C	inactive
O=S(=O)(c1ccc(NCSc2nc3ccccc3s2)cc1)c1ccc(NCSc2nc3ccccc3s2)cc1	inactive
CC(=O)OCC1OC(OC2=C(CC=C(C)C)C(=O)c3ccccc3C2=O)C(OC(C)=O)C(OC(C)=O)C1OC(C)=O (stereo not given)	active
CN(C)c1ccc(/C=C\N=Nc2ccc(Br)cc2)cc1	inactive

Given `O=C(O)CCCN1C(=O)CSC1=S` , state the outcome it received in this test.
inactive

Okay, and `NC(=O)c1ccc2nc3c(n2c1)C(=O)C(=O)c1ccccc1-3` ?
active

Okay, and `O=C(CSC(=S)N1CCCCC1)Nc1ccccc1` ?
inactive

----------
// growth lookup, one value per entry
tested on: MDA-MB-231 breast; assay: NCI-60 one-dose screen, 48 h (100 = growth as untreated, 0 = no growth, -100 = all killed); settings: 10 µM unless noted
About 83,000 compounds went through this panel and 20% of them were active in at least one assay; those are over-represented in the sample as a whole.
Field: numeric (%). Do not append units.

compound	growth [%]
N#C[Se]CCN1C(=O)C2C(C1=O)[C@H]1C=C[C@@H]2S1 (stereo partly drawn)	-40.5

Please report the recorded growth for COC(=O)C1CC2c3ccccc3C1c1ccccc12 (stereo not drawn) .
122

Okay, and `O=S(=O)(O)c1ccc(-c2ccc([As](=O)(O)O)cc2)cc1` ?
104

----------
system: SK-MEL-2 melanoma; assay: NCI-60 one-dose screen, 48 h; details: 10 µM unless noted
This is part of a sample that, as a whole, favours compounds with a hit. Of some 83,000 tested, about 20% had one in any assay. Calls of active or inactive are those of the source. The calls were made as follows: active = growth percent below 10; inactive = the rest.
Parameter call: string, one of active, inactive

// known answers, use as guide
compound	group
CCCCCN(CCCCC)CC(O)c1ccc(C)c(Cl)c1 (stereo not drawn)	inactive
Cc1nnc([S-])s1.[Au+].c1ccc([PH+](c2ccccc2)c2ccccc2)cc1	active
C=CC(=O)NC(O)C(Cl)(Cl)Cl (stereo not drawn)	inactive
COc1cc(C2CC(=O)Nc3nc(N)[se]c32)cc(OC)c1OC (stereo not drawn)	inactive
C/C(=N/OC(=O)N(C)C)c1ccc(Cl)cc1Cl	inactive

Given ClCCN(CCCl)c1nc(Cl)c(C2CC(c3ccccc3)=NN2c2ccccc2)s1 (stereo not drawn) , state the outcome it received in this test.
inactive

Okay, and COc1ccc(C2=NN(c3ccccc3)C(c3sc(N(CCCl)CCCl)nc3Cl)C2)cc1 (stereo not drawn) ?
inactive

Okay, and `CN1CC2CCC(C1)C2=O` ?
inactive

----------
test system: SK-MEL-2 melanoma; assay: NCI-60 one-dose screen, 48 h (100 = growth as untreated, 0 = no growth, -100 = all killed); conditions: 10 µM unless noted
This is part of a sample that, as a whole, favours compounds with a hit. Of some 83,000 tested, about 20% had one in any assay.
// growth lookup, one value per entry
Field: numeric (%). Do not append units.

compound	assaySystem	unitText	growth
O1[As]2O[As]3O[As]1O[As](O2)O3	SK-MEL-2 melanoma	%	-34.8
C1CNC2CCCC2C1 (stereo unspecified)	SK-MEL-2 melanoma	%	106
CN(C)P1(N(C)C)=NP(N(C)C)(N(C)C)=NP(N(C)C)(N(C)C)=N1	SK-MEL-2 melanoma	%	98.2

Please report the recorded growth for `O=C(CCCN1CCC2(CC1)C(=O)NCN2c1ccc(F)cc1)c1ccc(F)cc1` .
84.9

Okay, and O=CN1N=C(c2ccccc2)CC1c1sc(N(CCCl)CCCl)nc1Cl (stereo unspecified) ?
77.2

Okay, and `N#CC(C#N)=Cc1ccc2ccccc2c1` ?
102

----------
// growth lookup, one value per entry
system: HL-60(TB) leukemia; assay: NCI-60 one-dose screen, 48 h (100 = growth as untreated, 0 = no growth, -100 = all killed); details: 10 µM unless noted
The panel holds about 83,000 compounds, 20% with a hit somewhere; the sample as a whole holds those more often. Activity calls are given as the source filed them. How the source made its calls: active means growth percent below 10; inactive means the rest.

compound	growth
O=C(/C=C\c1ccco1)/C=C/c1ccco1	106% (inactive)
COc1cc2c(c(OC)c1OC)C(=O)CC(c1cccc(C(=O)Nc3ccc(Br)cc3)c1)O2 (configuration not stated)	13.8% (inactive)
COc1cc(/C=C2\CN(C(=O)CCN3CCC(=NO)CC3)C/C(=C\c3cc(OC)c(OC)c(OC)c3)C2=O)cc(OC)c1OC	-27.9% (active)

// next entry
For HL-60(TB) leukemia, provide growth of COc1ccc(CN2C(=O)OC(C)(COC(C)=O)C2=O)cc1 (configuration not stated) please.
101% (inactive)

----------
test system: 786-0 renal; experiment: NCI-60 one-dose screen, 48 h; conditions: 10 µM unless noted
The panel holds about 83,000 compounds, 20% with a hit somewhere; the sample as a whole holds those more often. The source made the active and inactive calls. The calls were made as follows: active = growth percent below 10; inactive = the rest.
Parameter call: string, one of yes for active, no for inactive

// known answers, use as guide
compound	assaySystem	group
CNC(=O)Oc1cc(C(C)C)ccc1Sc1ccc(C(C)C)cc1OC(=O)NC	786-0 renal	no
Cc1nnc([S-])s1.[Au+].c1ccc([PH+](c2ccccc2)c2ccccc2)cc1	786-0 renal	yes

Given [N-]=[N+]=NC(C(=O)O)c1ccccc1 (stereo not drawn) , state the outcome it received in this test.
no

----------
System: U251 CNS
Assay: NCI-60 one-dose screen, 48 h
Conditions: 10 µM unless noted
Experimental: Growth inhibition of the U251 human tumor cell line is measured as a screen for anti-cancer activity. Cells are grown in 96 well plates and exposed to the test compound for 48 hours. Compounds are tested at a single concentration, which is 10^-5 M for most compounds. The reported endpoint is percent growth (GI% or GIPRCNT), where numbers from 0 - 100% represent growth inhibition, and numbers from -100% - 0 represent cell death. For example, a value of 40 represents 60% growth inhibition. […]
This is part of a sample that, as a whole, favours compounds with a hit. Of some 83,000 tested, about 20% had one in any assay. Active and inactive are the calls of the source. The calls were made as follows: active = growth percent below 10; inactive = the rest.
Parameter call: string, one of active, inactive

// known answers, use as guide
molecule	assaySystem	group
O=CN1N=C(c2ccccc2)CC1c1sc(N(CCCl)CCCl)nc1Cl (centres undefined)	U251 CNS	inactive
CNC(C)Cc1ccccc1 (centres undefined) (tested in a mixture with another compound)	U251 CNS	inactive
NS(=O)(=O)c1nc[nH]c1[N+](=O)[O-]	U251 CNS	inactive
Nc1c(Br)cc2c3c(cccc13)-c1ccccc1-2	U251 CNS	inactive
ClCCN(CCCl)c1nc(Cl)c(C2CC(c3ccc(Cl)cc3)=NN2c2cc(Cl)cc(Cl)c2)s1 (centres undefined)	U251 CNS	inactive

Given Cc1ccc(N)cc1[As]=[As]c1cc(N)ccc1C (centres undefined) , state the outcome it received in this test.
active

Okay, and `CN=C(NN)NN` ?
inactive

Okay, and `Cc1cc(NC(=O)/C=C/c2ccc([N+](=O)[O-])cc2)ccc1S(=O)(=O)F` ?
inactive

Okay, and `O=C(/C=C/c1ccccc1)N[C@@H](CO)Cc1cnc[nH]1` ?
inactive

----------
tested on: SNB-19 CNS; assay: NCI-60 one-dose screen, 48 h; settings: 10 µM unless noted
About 83,000 compounds went through this panel and 20% of them were active in at least one assay; those are over-represented in the sample as a whole. Activity calls are given as the source filed them. The calls were made as follows: active = growth percent below 10; inactive = the rest.
Parameter call: string, one of active, inactive

// known answers, use as guide
molecule	group
CC1(C)N=C(N)N=C(N)N1c1ccc(CCC(=O)Nc2cccc(S(=O)(=O)F)c2)cc1	inactive
CCN(CC)c1ccc(C=C2C(=O)NC(=S)NC2=O)cc1	inactive
[Br][Pb]([c]1ccccc1)([c]1ccccc1)[c]1ccccc1	active
COc1cc[c]([Hg][Cl])cc1	inactive
O=C(N/N=C/c1ccc([N+](=O)[O-])o1)c1cc([N+](=O)[O-])cc([N+](=O)[O-])c1O	inactive
O=C(O)C1[O][Sb][O]C1C(=O)O (stereo unspecified)	inactive

Given `O=C(CCF)c1ccc(O)cc1` , state the outcome it received in this test.
inactive

Okay, and `Clc1ccc(SSC(Cl)(Cl)Cl)cc1` ?
inactive

Okay, and O=C(CC1(O)C(=O)Nc2ccc(F)cc21)c1ccc(C(=O)NCC2CCC3(CC2)OOC2(CCCCC2)OO3)cc1 (stereo unspecified) ?
inactive

Okay, and `O=C(O)c1[nH]c(=O)[nH]c(=O)c1F` ?
inactive

Okay, and CCC(C)/C=C(C)/C=C/C(=O)c1c(O)c(-c2ccc(O)cc2)c[nH]c1=O (stereo unspecified) ?
inactive

Okay, and C[C@]12CCC(=O)CC1CC[C@@H]1C2CC[C@@]2(C)C1CC[C@@H]2OC(=O)CC[Se][Se]CCC(=O)O[C@H]1CCC2[C@@H]3CCC4CC(=O)CC[C@]4(C)C3CC[C@@]21C (stereo partly specified) ?
inactive

Okay, and `Cc1cc(NC(=O)NCCOc2ccc(N3C(N)=NC(N)=NC3(C)C)cc2Cl)ccc1S(=O)(=O)F` ?
inactive

Okay, and `CCOC(=O)c1cnc(SCc2ccc(Cl)c(Cl)c2)nc1N1CC1` ?
inactive

Okay, and `NC(=O)SCC(=O)Nc1ccc([As](=O)(O)O)cc1` ?
inactive
